These data points were gathered from patent US20240191211A1.

tested on: K562 cell lysate depleted of biotinylated proteins; test: Photocatalytic protein labeling with azide-biotin analogs driven by HT178-cpNLuc-179:Ir-9049 in K562 lysate; assay type: biochemical; details: 45 minutes incubation

>  <SMILES DATA>
C/C(=C\C(=O)NCCOCCOCCOCCOCCNC(=O)CCCC[C@@H]1SC[C@@H]2NC(=O)N[C@@H]21)c1ccc(N=[N+]=[N-])cc1

>  <light-independent background>
significantly decreased

$$$$
>  <SMILES DATA>
[N-]=[N+]=Nc1ccc(C(=O)NCCOCCOCCOCCOCCNC(=O)CCCC[C@@H]2SC[C@@H]3NC(=O)N[C@@H]32)c(O)c1

>  <light-independent background>
significantly decreased

$$$$
>  <SMILES DATA>
C/C(=C\C(=O)NCCOCCOCCOCCOCCNC(=O)CCCC[C@@H]1SC[C@@H]2NC(=O)N[C@@H]21)c1ccc(N=[N+]=[N-])c(C#N)c1

>  <light-independent background>
significantly decreased

$$$$
>  <SMILES DATA>
[N-]=[N+]=Nc1ccc2cc(C(=O)NCCOCCOCCOCCOCCNC(=O)CCCC[C@@H]3SC[C@@H]4NC(=O)N[C@@H]43)ccc2c1

>  <light-independent background>
significantly decreased

$$$$
